Assay: Clearance in Wistar rat at 3 mg/kg, ip measured upto 24 hrs by HPLC-MS/MS method
Assay type: ADME, organism-based
Conditions: in vivo
observable: CL/F (mL/min/kg)

>>> df
                               entry_smiles  observable  reading
0  O=C(O)c1cc(-c2ccc(-c3cc(CO)on3)cc2)c2ccc(-c3ccc(C(F)(F)F)cc3)cc2c1        CL/F     23.7

* * *

Reported Ki is given for each of the following compounds.
Molecular target: Sigma non-opioid intracellular receptor 1 (Homo sapiens)
Sequence (Q99720 whole entry): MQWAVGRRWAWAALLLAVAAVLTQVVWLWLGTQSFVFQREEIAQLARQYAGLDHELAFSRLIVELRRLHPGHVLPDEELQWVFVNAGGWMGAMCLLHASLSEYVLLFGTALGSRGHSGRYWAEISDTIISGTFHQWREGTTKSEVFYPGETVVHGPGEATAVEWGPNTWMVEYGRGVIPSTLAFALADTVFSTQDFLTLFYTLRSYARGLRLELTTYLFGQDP
Test: Binding affinity to sigma 1 receptor (unknown origin)
observable: Ki (µM)

>>> print(df.to_string())
                               entry_smiles  observable  reading
0  O=CN1CCC(c2ccc(-c3cc(C(=O)O)cc4cc(-c5ccc(C(F)(F)F)cc5)ccc34)cc2)CC1          Ki    0.759
1  O=C(O)c1cc(-c2ccc(-c3cc(CO)on3)cc2)c2ccc(-c3ccc(C(F)(F)F)cc3)cc2c1          Ki     2.68
2  O=C(O)c1cc(-c2ccc(NC(=O)C3CCNCC3)cc2)cc(-n2cc(-c3ccc(C(F)(F)F)cc3)nn2)c1          Ki     2.33

* * *

pIC50: −log10 of the molar value.
Parameter pIC50, tested on P2Y purinoceptor 14 (Homo sapiens, UniProt Q15391), listed per item.
Sequence (Q15391 whole entry): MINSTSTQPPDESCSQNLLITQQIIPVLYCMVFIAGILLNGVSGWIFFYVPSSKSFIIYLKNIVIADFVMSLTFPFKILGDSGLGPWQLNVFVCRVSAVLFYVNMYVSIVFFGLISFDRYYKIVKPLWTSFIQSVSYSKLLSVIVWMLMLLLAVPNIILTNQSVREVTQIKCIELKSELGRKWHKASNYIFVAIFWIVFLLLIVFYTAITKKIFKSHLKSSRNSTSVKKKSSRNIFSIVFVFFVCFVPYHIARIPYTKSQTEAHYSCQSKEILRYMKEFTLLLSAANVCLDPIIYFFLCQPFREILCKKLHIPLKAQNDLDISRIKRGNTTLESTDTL
observable: pIC50

In [3]: df
Out[3]:
                               entry_smiles  observable  reading
0  CC(C)(C)OC(=O)NC1(c2ccc(-c3cc(C(=O)O)cc(-n4cc(-c5ccc(C(F)(F)F)cc5)nn4)c3)cc2)CCC1       pIC50   < 5.00
1  O=C(O)c1cc(-c2ccc(Br)cc2)cc(-n2cc(-c3ccc(C(F)(F)F)cc3)nn2)c1       pIC50   < 5.00

* * *

Experiment: Clearance in Wistar rat at 10 mg/kg, ip measured upto 24 hrs by HPLC-MS/MS method
Type: ADME, organism-based
Settings: in vivo
observable: CL/F (mL/min/kg)

In [3]: df
Out[3]:
                               entry_smiles  measurement_unit  reading
0  O=C(O)c1cc(-c2ccc(-c3cc(CO)on3)cc2)c2ccc(-c3ccc(C(F)(F)F)cc3)cc2c1         mL/min/kg     33.8

* * *

Target: D(1B) dopamine receptor (Homo sapiens, UniProt P21918)
Sequence (P21918 whole entry): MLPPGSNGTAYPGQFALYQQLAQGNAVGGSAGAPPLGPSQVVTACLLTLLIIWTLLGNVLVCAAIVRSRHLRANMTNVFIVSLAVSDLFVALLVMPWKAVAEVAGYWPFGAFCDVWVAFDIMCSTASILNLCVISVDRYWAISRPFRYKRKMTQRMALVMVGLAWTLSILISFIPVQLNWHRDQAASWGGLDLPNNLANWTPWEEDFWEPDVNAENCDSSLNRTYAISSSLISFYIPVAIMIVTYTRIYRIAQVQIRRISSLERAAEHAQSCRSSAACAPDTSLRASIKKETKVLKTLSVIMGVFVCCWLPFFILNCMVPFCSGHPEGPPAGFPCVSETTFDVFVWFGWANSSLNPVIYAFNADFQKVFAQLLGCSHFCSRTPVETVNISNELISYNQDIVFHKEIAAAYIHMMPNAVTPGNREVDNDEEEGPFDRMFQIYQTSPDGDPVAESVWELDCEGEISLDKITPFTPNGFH
pKi: −log10 of the molar value.
observable: pKi

>>> df
                               entry_smiles  reading
0  O=CN1CCC(c2ccc(-c3cc(C(=O)O)cc4cc(-c5ccc(C(F)(F)F)cc5)ccc34)cc2)CC1     5.84

* * *

Reported Ki is given for each of the following compounds.
Target: Sigma intracellular receptor 2 (Homo sapiens, UniProt Q5BJF2)
Sequence (Q5BJF2 whole entry): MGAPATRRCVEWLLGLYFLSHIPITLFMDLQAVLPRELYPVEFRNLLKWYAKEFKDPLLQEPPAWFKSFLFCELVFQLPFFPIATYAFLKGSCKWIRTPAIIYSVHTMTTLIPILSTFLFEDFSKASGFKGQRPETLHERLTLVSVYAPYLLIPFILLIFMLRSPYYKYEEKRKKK
Experiment: Binding affinity to sigma 2 receptor (unknown origin)
observable: Ki (nM)

In [3]: df
Out[3]:
                               entry_smiles                              study_target  measurement_unit  reading
0  O=C(O)c1cc(-c2ccc(-c3nnn[nH]3)cc2)cc(-n2cc(-c3ccc(C(F)(F)F)cc3)nn2)c1  Sigma intracellular receptor 2 (Homo sapiens, UniProt Q5BJF2)                nM     2260
1  CC(=O)N1CCC(c2ccc(-c3cc(C(=O)OCC(=O)N(C)C)cc4cc(-c5ccc(C(F)(F)F)cc5)ccc34)cc2)CC1  Sigma intracellular receptor 2 (Homo sapiens, UniProt Q5BJF2)                nM      590
2  O=C(O)c1cc(-c2ccc(-c3cc(CO)on3)cc2)c2ccc(-c3ccc(C(F)(F)F)cc3)cc2c1  Sigma intracellular receptor 2 (Homo sapiens, UniProt Q5BJF2)                nM     4780
3  NC(=O)Cc1ccc(-c2cc(C(=O)O)cc(-n3cc(-c4ccc(C(F)(F)F)cc4)nn3)c2)cc1  Sigma intracellular receptor 2 (Homo sapiens, UniProt Q5BJF2)                nM      931

* * *

Test: Elimination rate constant in Wistar rat at 1 mg/kg, ip measured upto 24 hrs by HPLC-MS/MS method
Type: ADME, organism-based
Details: in vivo
observable: k el at 24 h (s⁻¹)

>>> print(df.to_string())
                               entry_smiles   reading
0  O=C(O)c1cc(-c2ccc(-c3cc(CO)on3)cc2)c2ccc(-c3ccc(C(F)(F)F)cc3)cc2c1  2.67e-05

* * *

Biological target: Voltage-gated inwardly rectifying potassium channel KCNH2 (Homo sapiens)
Sequence (Q12809 whole entry): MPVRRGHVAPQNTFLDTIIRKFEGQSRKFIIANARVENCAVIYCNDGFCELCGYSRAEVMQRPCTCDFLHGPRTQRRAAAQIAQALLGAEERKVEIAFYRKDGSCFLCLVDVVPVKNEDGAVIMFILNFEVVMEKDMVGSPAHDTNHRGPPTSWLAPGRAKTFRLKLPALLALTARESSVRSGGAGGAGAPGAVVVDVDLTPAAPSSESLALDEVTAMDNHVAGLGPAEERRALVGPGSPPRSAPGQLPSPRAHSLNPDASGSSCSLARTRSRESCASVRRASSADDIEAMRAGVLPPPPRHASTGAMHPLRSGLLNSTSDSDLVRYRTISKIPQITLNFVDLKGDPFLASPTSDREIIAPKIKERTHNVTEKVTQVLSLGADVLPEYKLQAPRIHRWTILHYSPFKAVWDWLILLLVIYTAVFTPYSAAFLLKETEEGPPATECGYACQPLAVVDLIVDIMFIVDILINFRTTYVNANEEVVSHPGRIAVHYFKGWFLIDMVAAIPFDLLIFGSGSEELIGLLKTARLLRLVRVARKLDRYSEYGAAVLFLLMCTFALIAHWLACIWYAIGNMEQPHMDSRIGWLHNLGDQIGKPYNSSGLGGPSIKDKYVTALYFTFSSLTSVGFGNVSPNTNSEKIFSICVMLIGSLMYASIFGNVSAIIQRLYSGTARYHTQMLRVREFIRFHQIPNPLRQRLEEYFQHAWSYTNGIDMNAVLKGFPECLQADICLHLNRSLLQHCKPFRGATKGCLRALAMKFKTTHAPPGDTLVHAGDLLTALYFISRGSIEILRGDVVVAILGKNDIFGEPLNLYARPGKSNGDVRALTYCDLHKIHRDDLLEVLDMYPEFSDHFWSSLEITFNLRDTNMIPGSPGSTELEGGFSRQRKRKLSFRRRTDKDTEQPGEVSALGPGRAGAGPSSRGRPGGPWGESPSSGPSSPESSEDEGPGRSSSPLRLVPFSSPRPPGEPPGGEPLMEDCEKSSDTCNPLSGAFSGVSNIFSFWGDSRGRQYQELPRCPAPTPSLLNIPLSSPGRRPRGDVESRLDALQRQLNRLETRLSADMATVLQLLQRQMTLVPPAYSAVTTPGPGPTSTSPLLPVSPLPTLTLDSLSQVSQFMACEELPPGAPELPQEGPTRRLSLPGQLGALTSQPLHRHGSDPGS
observable: EC50

>>> print(df.to_string())
                               entry_smiles                              study_target  reading
0  O=C(O)c1cc(-c2ccc(C3CCNCC3)cc2)c2ccc(-c3ccc(C(F)(F)F)cc3)cc2c1  Voltage-gated inwardly rectifying potassium channel KCNH2 (Homo sapiens)  > 30 µM

* * *

Experiment: Elimination rate constant in Wistar rat at 3 mg/kg, ip measured upto 24 hrs by HPLC-MS/MS method
Assay type: ADME, organism-based
Conditions: in vivo
observable: k el at 24 h (s⁻¹)

                               entry_smiles    observable   reading
0  O=C(O)c1cc(-c2ccc(-c3cc(CO)on3)cc2)c2ccc(-c3ccc(C(F)(F)F)cc3)cc2c1  k el at 24 h  4.11e-05

* * *

Experiment: Clearance in Wistar rat at 1 mg/kg, ip measured upto 24 hrs by HPLC-MS/MS method
Format: ADME, organism-based
Details: in vivo
observable: CL/F (L/h/kg)

                               entry_smiles  observable  reading
0  O=C(O)c1cc(-c2ccc(-c3cc(CO)on3)cc2)c2ccc(-c3ccc(C(F)(F)F)cc3)cc2c1        CL/F     1.43

* * *

Biological target: D(1A) dopamine receptor (Homo sapiens, UniProt P21728)
Sequence (P21728 whole entry): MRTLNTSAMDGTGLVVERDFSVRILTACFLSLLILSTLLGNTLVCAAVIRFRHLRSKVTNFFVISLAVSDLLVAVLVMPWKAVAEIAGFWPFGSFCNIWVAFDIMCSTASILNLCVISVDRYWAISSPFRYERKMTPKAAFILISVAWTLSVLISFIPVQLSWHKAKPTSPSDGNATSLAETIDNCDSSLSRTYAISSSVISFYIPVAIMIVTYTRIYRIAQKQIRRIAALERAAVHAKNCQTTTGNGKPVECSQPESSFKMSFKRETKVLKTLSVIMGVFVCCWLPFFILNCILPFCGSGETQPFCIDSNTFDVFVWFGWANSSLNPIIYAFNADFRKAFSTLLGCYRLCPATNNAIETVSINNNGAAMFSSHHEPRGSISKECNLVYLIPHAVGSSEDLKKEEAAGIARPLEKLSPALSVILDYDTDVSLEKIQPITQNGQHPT
Assay: Binding affinity to D1 receptor (unknown origin)
pKi: −log10 of the molar value.
observable: pKi

>>> df
                               entry_smiles  reading
0  O=CN1CCC(c2ccc(-c3cc(C(=O)O)cc4cc(-c5ccc(C(F)(F)F)cc5)ccc34)cc2)CC1     6.28

* * *

Assay: Elimination rate constant in Wistar rat at 10 mg/kg, ip measured upto 24 hrs by HPLC-MS/MS method
Type: ADME, organism-based
Details: in vivo
observable: k el at 24 h (s⁻¹)

>>> df
                               entry_smiles   reading
0  O=C(O)c1cc(-c2ccc(-c3cc(CO)on3)cc2)c2ccc(-c3ccc(C(F)(F)F)cc3)cc2c1  6.47e-05

* * *

Target: liver carboxylesterase (Sus scrofa)
Sequence (Q29550 whole entry): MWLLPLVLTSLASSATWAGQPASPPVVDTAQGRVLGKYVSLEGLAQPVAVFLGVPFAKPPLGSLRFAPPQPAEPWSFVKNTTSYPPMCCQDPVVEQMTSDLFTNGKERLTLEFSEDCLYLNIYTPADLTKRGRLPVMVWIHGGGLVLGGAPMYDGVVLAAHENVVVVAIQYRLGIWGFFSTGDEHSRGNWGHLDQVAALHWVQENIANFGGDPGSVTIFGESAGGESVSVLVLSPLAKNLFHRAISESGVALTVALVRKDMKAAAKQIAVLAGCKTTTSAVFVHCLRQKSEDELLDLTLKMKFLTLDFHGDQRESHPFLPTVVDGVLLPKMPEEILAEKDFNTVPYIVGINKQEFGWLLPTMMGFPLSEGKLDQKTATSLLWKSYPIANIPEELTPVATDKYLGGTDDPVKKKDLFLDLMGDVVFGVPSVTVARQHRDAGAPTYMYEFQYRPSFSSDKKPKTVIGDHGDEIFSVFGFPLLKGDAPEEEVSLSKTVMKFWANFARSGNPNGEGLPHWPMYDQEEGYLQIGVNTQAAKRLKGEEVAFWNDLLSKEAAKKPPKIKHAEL
Assay: Drug metabolism in pH 7.5 HEPES buffer assessed as porcine liver esterase-mediated compound hydrolysis by measuring half life measured up to 72 hrs by HPLC analysis
Format: ADME, tissue-based
Settings: pig
observable: half-life

>>> print(df.to_string())
                               entry_smiles                         study_target  reading
0  CN(C)C(=O)COC(=O)c1cc(-c2ccc(-c3cc(CO)on3)cc2)c2ccc(-c3ccc(C(F)(F)F)cc3)cc2c1  liver carboxylesterase (Sus scrofa)   > 72 h
1  CC(=O)N1CCC(c2ccc(-c3cc(C(=O)OCC(=O)N(C)C)cc4cc(-c5ccc(C(F)(F)F)cc5)ccc34)cc2)CC1  liver carboxylesterase (Sus scrofa)   > 72 h
